Measured composite z-score accompanies every entry in the list below.
System: Noggin (protein binding on small-molecule microarray)
measurement_description: Noggin binders on small-molecule microarray, primary screen, biochemical, 635/667 nm fluorescence (AID 1095);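 further: score merges 667 nm feature fluorescence with signal to noise over triplicate slides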
study_conditions: 635 nm fluorescence, higher = more signal
Respond using a number only.

// known answers, use as guide
>>> endpoint_result("C=C(CCCC)C(=O)CC[C@@H](OC(C)=O)c1ccc(OCCO)cc1")
1.53
>>> endpoint_result("COc1ccc([Si](C)(C)[C@@H]2[C@@H](CC(=O)N3CCC[C@H]3CO)O[C@]3(C(=O)N(Cc4cccc(N5C(=O)c6cccc7cccc5c67)c4)c4ccccc43)[C@H]2C)cc1")
0.641
>>> endpoint_result("Cc1ccc(S[C@]2(C(=O)NC(C)C)CC(=O)N(Cc3ccccc3)[C@@H]2c2ccc(CO)cc2I)cc1")
-1.44

Attention now shifts to the item below.
# input Entry "COc1ccc(-c2cc3c(c(CCc4ccccc4)n2)[Si](C(C)C)(C(C)C)O[C@H]3c2ccccc2)cn1" has what composite z-score?
# output 0.75

src = PubChem BioAssay
